Outcome measure: melting point

[[record]]
compound = "Fc1cc(Cl)ccc1-n1nc2c(c1Br)CCCCC2"
assay_value = "59 to 60 °C"

[[record]]
compound = "CCCCc1nc2c(c(=O)[nH]1)CN(C(=O)OCc1ccccc1)CC2"
assay_value = "117 to 122 °C"

[[record]]
compound = "CC(=O)C(=Cc1ccc(Cl)c([N+](=O)[O-])c1)C(C)=O"
assay_value = "110 to 111 °C"

[[record]]
compound = "CC(=CS(N)(=O)=O)c1ccccc1"
assay_value = "101 to 102 °C"

[[record]]
compound = "COC(=O)c1ccc(CNC(=O)C[C@H]2O[C@H](c3cccc(OC)c3OC)c3cc(Cl)ccc3N(CC(C)(C)CO)C2=O)cc1"
assay_value = "110 to 112 °C"

[[record]]
compound = "CCOc1c(Nc2ccncc2)c(=O)c1=O"
assay_value = "120 to 125 °C"

[[record]]
compound = "C=C(C)OC(=O)c1ccc(C(=O)OC(=C)C)cc1"
assay_value = "72 to 73.5 °C"

[[record]]
compound = "CCN(CC)CCNc1ccc(NCCNCCO)c2c1C(=O)c1c(O)ccc(O)c1C2=O"
assay_value = "165 to 167 °C"

[[record]]
compound = "COC(=O)Nc1cccc(C)c1CNc1cccn2c(C)c(C)nc12"
assay_value = "136 to 138 °C"

[[record]]
compound = "N#Cc1c(F)c(F)c(O)c(F)c1F"
assay_value = "128 to 129 °C"

[[record]]
compound = "N#Cc1ccccc1NC(=O)C1CCCCC1"
assay_value = "135 to 137 °C"

[[record]]
compound = "COCN(C(=O)Nc1ccc(Cl)cc1)C(=O)c1c(Cl)cccc1Cl"
assay_value = "122 °C"

[[record]]
compound = "CSC(=NCCN(C)C)NC#N"
assay_value = "94 to 95 °C"

[[record]]
compound = "Cc1cncn1Cc1ccc(N)cc1"
assay_value = "124 to 125 °C"

[[record]]
compound = "O=[N+]([O-])c1cccc(-c2cc(Cc3ccc(F)cc3)cc(/C=N/O)c2O)c1"
assay_value = "157 to 159 °C"

[[record]]
compound = "O=C(Nc1cc2ncc(CN3CCCC3)cc2cc1F)c1ccc(-c2ccc(Cl)cc2)cc1"
assay_value = "218 to 220 °C"

[[record]]
compound = "C=C(C)C(=O)OCCCCc1ccc(OC(F)(F)c2c(F)cc(-c3ccc(CCCCOC(=O)C(=C)C)cc3F)cc2F)cc1"
assay_value = "128 °C"

[[record]]
compound = "CCCn1c(COCC)nc2c(N)nc3ccc(OC4CCN(C(=O)OC(C)(C)C)CC4)cc3c21"
assay_value = "180 to 181 °C"

[[record]]
compound = "COc1ccc(COc2ccc(OC)c(Cc3cnc(N)nc3N)c2)cc1"
assay_value = "220 to 221 °C"

[[record]]
compound = "CC1=NN(C)C(=O)C1(Br)C(=O)c1ccc(Cl)cc1Cl (stereo not drawn)"
assay_value = "89 to 90 °C"

[[record]]
compound = "COC(=O)C=Cc1ccc(OC)cc1"
assay_value = "85 to 86 °C"

[[record]]
compound = "O=C(O)c1ccc(OCCNC(=O)C2Cc3ccccc3N2S(=O)(=O)c2ccc(-c3ccc(F)cc3)cc2)c(C(F)(F)F)c1 (stereo not drawn)"
assay_value = "139 to 142 °C"

[[record]]
compound = "CCCCCn1cc(C(=O)O)c2ccc(Cl)cc21"
assay_value = "152 to 154 °C"

[[record]]
compound = "O=C(O)CCc1ccc2c(c1)OC[C@@H](Cc1ccccc1)[C@@H]2O (relative stereo)"
assay_value = "161 to 162 °C"

[[record]]
compound = "COCC(=O)Nc1nc(NC(=O)COC)c2[nH]cnc2n1"
assay_value = "219 to 220 °C"

[[record]]
compound = "CS(=O)(=O)Nc1cc(NS(C)(=O)=O)cc([N+](=O)[O-])c1"
assay_value = "223 to 224 °C"

[[record]]
compound = "CN(C)C(=Nc1ccccc1)N(C)N1C(=O)c2ccccc2C1=O"
assay_value = "146 to 148 °C"

[[record]]
compound = "CC(=O)OCc1nc([N+](=O)[O-])cn1C"
assay_value = "93 to 95 °C"

[[record]]
compound = "N=C(N)c1ccncc1"
assay_value = "136 to 140 °C"

[[record]]
compound = "CNc1nc(C)c(-c2nc3ccccc3c(=O)n2-c2ccccc2Cl)s1"
assay_value = "214 to 215 °C"

[[record]]
compound = "c1ccc(C2CN3CCN=C3S2)cc1 (stereo not drawn)"
assay_value = "68 to 70 °C"

[[record]]
compound = "O=C1Cc2ccccc2N1C1=NCCS1"
assay_value = "97 to 99 °C"

[[record]]
compound = "CC(CC(=O)OC(C)C)N=c1sc2ccccc2s1 (stereo not drawn)"
assay_value = "44 °C"

[[record]]
compound = "C=CCOc1cc(-n2c(OC)nc(C(F)(F)F)cc2=O)c(F)cc1Cl"
assay_value = "103 to 104 °C"

[[record]]
compound = "Cc1oc2cc(C3CC(=O)NC(=O)C3)ccc2c1C"
assay_value = "252 to 254 °C"

[[record]]
compound = "CC(=O)OCc1cc(COC(C)=O)n(C(c2ccccc2)(c2ccccc2)c2ccccc2)n1"
assay_value = "119 to 121 °C"

[[record]]
compound = "Cc1nc(NC(=O)c2cnn3c(C(F)F)cc(-c4ccc(C(F)(F)F)cc4)nc23)sc1S(=O)(=O)NCCN(C)C"
assay_value = "217 °C"

[[record]]
compound = "CC(C)N(C(=O)c1ccc(N)cc1)C(C)C"
assay_value = "170 °C"

[[record]]
compound = "CCOC(=O)c1cnn(-c2ccc(C=O)cc2)n1"
assay_value = "126 to 129 °C"

[[record]]
compound = "CCOC(=O)C1SCCN1C(=S)Nc1cc(Cl)cc(Cl)c1 (stereo not drawn)"
assay_value = "170 to 172 °C"

[[record]]
compound = "CCCCCCc1cccc(-c2cn(C)cc(-c3ccccc3)c2=O)c1"
assay_value = "93 to 95 °C"

[[record]]
compound = "COC(=O)c1nccnc1Br"
assay_value = "43 to 45 °C"

[[record]]
compound = "O=C(Nc1ccc(OCCN2CCOCC2)c2ccccc12)OCC(Cl)(Cl)Cl"
assay_value = "124 to 125 °C"


Data provenance: a melting point compilation (Tetko et al.; mined from patent text by program, amines drawn as free bases though some values may be those of a salt)
